Molecular target: UPR counterscreen luciferase reporter, luminescence
Experiment: luciferase reporter activation, UPR counterscreen line – cell-based, luminescence, counter-screen for adaptive UPR activator project, dose response (AID 489027)
Calls of active or inactive are those of the source. No rule for the calls is given here.
Allowed answers: active, inactive

Worked set:
COc1ccc(Cn2c(SCc3ccccc3C)nc3cc(OC)c(OC)cc3c2=N)cc1	active
CCOC(=O)c1sc(NC(=S)NC(=O)c2ccccc2)c(C(=O)OCC)c1C	inactive
Cn1c(=O)c2c(SCC(=O)Nc3ccccc3F)nc(-c3ccccc3F)nc2n(C)c1=O	inactive
Cc1ccc(-n2c(O)c(/C=N/c3ncc(Br)cc3Br)c(=O)[nH]c2=O)cc1	inactive
Cc1ccc(C)c(N=Cc2c(O)c3ccccc3oc2=O)c1	inactive

Exam item: How was Cc1c(Cl)cccc1Nc1nc(NCCO)c2ccccc2n1 classified in this test?
Marked response: active

Exam item: How was CC1CCN(Cc2c(C(=O)N/N=C/c3ccc(C(C)(C)C)cc3)nnn2-c2nonc2N)CC1 classified in this test?
Marked response: active

Exam item: How was Cc1nc2ccccc2n1-c1nc(-c2ccco2)cc(C(F)(F)F)n1 classified in this test?
Marked response: active

Exam item: How was CCOC(=O)/C(=N\Nc1ccc(C(C)=O)cc1)c1csc(Nc2ccccc2)n1 classified in this test?
Marked response: inactive

Exam item: How was CC(C)(C)C(=O)NC(=S)NNC(=O)c1ccc(-c2ccccc2)cc1 classified in this test?
Marked response: active

Exam item: How was Cc1ccc2nc(SCC(=O)Nc3cc(C(F)(F)F)ccc3N3CCOCC3)[nH]c2c1 classified in this test?
Marked response: inactive

Exam item: How was Cc1ccc(C(=O)N2N=C(c3ccc(Br)cc3)CC2c2ccccc2O)cc1 (stereo not given) classified in this test?
Marked response: active

Exam item: How was O=C(Nc1nc(-c2ccc3ccccc3c2)cs1)c1ccc(N2C(=O)CCC2=O)cc1 classified in this test?
Marked response: inactive

Exam item: How was C/C(=N/NC(=O)c1ccc(Cl)s1)c1ccc(NC(=O)COc2ccc(Cl)cc2)cc1 classified in this test?
Marked response: inactive

====

Biological target: UPR counterscreen luciferase reporter, luminescence
Assay: luciferase reporter activation, UPR counterscreen line – cell-based, luminescence, counter-screen for adaptive UPR activator project, dose response (AID 489027)
Activity calls are given as the source filed them. How the calls were made is not given here.
Allowed answers: class 1 for active, class 0 for inactive

CN1/C(=C\C(=O)COC(=O)c2ccc(O)c(O)c2)C(C)(C)c2ccccc21	class 1
COc1ccc(-c2coc3cc4oc(=O)cc(-c5ccccc5)c4cc23)cc1F	class 0
C#CCn1c(=NC(=O)c2ccc(S(=O)(=O)N3CCc4ccccc4C3)cc2)sc2cc(S(N)(=O)=O)ccc21	class 0

Exam item: How was COc1cc(/C=C(/C#N)c2nc3ccccc3[nH]2)ccc1OCC(=O)Nc1ccccc1C classified in this test?
Marked response: class 1

====

Biological target: UPR counterscreen luciferase reporter, luminescence
Experiment: luciferase reporter activation, UPR counterscreen line – cell-based, luminescence, counter-screen for adaptive UPR activator project, dose response (AID 489027)
Activity calls are given as the source filed them. No rule for the calls is given here.
Allowed answers: 1.0 for active, 0.0 for inactive

Worked set:
COC(=O)c1c(C)oc2ccc(N(C(=O)Oc3ccccc3)S(=O)(=O)c3ccc(Cl)c([N+](=O)[O-])c3)cc12	1.0
Cc1ccccc1OCc1nc(-c2ccc(NC(=O)c3ccc4c(c3)OCO4)cc2)no1	0.0
COc1cc(-c2noc(C)c2/C=C/c2ccc(OC(C)=O)cc2)cc(OC)c1OC	0.0
CC(=O)Nc1ccccc1Sc1ccc2c3c(cccc13)C(=O)N(c1ccc(C)cc1)C2=O	0.0
COc1cc(NC(=O)c2cccs2)ccc1NC(=O)c1cc2ccccc2o1	0.0

Exam item: How was CCOC(=O)c1nnc(-c2ccc(C)cc2)nc1Oc1ccccc1Cl classified in this test?
Marked response: 0.0

Exam item: How was Oc1ccc(/C=N/Nc2cc(N3CCOCC3)nc(N3CCOCC3)n2)cc1O classified in this test?
Marked response: 1.0

Exam item: How was COc1ccc(N2CCN(Cc3cc(=O)oc4cc(-c5ccccc5)c(O)cc34)CC2)cc1 classified in this test?
Marked response: 0.0

Exam item: How was Cc1ccc(-c2nnc(-c3ccc(NC(=O)Cc4cccs4)cc3)o2)cc1 classified in this test?
Marked response: 0.0

Exam item: How was CCCCCCCCCCOC(=O)Cn1c(COc2ccc(Cl)cc2)[n+](C)c2ccccc21 classified in this test?
Marked response: 0.0

Exam item: How was COc1ccc(-n2c(C)cc(C(=O)CCl)c2C)cc1 classified in this test?
Marked response: 1.0

Exam item: How was CCCNC(=O)c1c(N)n(-c2ccc3c(c2)OCO3)c2nc3ccccc3nc12 classified in this test?
Marked response: 0.0

Exam item: How was COc1ccc(OCc2n(CC(=O)OC3CC(C)CCC3C(C)C)c3ccccc3[n+]2C)cc1 (stereo not drawn) classified in this test?
Marked response: 0.0

Exam item: How was O=S(=O)(c1ccc2nc(-c3ccccc3)[nH]c2c1)N1CCN(c2ccc(Cl)cc2)CC1 classified in this test?
Marked response: 0.0

Exam item: How was CC(C)c1ccc(/C=C/C(=O)Nc2nc3ccc([N+](=O)[O-])cc3s2)cc1 classified in this test?
Marked response: 0.0

Exam item: How was COc1ccc2cc1Oc1ccc(cc1)C[C@H]1c3c(cc(OC)c4c3Oc3c(ccc5c3[C@H](C2)N(C)CC5)O4)CCN1C classified in this test?
Marked response: 1.0

Exam item: How was COc1ccc(-c2csc(NC(=S)NC(=O)/C=C/c3ccco3)n2)cc1Br classified in this test?
Marked response: 0.0

Exam item: How was C/C(Cl)=C\Cn1c(O)c(N=NC(N)=S)c2cc(Br)ccc21 classified in this test?
Marked response: 1.0

Exam item: How was C[C@H]1[C@H](C)CC[C@]2(C(=O)O)CC[C@]3(C)C(=CC[C@@H]4[C@@]5(C)C[C@@H](O)[C@H](O)C(C)(C)[C@@H]5CC[C@]43C)[C@H]12 classified in this test?
Marked response: 0.0

Exam item: How was COc1ccc(-c2csc(NC(=S)NC(=O)/C=C/c3ccccc3)n2)cc1Br classified in this test?
Marked response: 0.0

Exam item: How was O=c1[nH]c(CSc2ncnc3sc(-c4ccccc4)cc23)nc2ccccc12 classified in this test?
Marked response: 0.0

====

Target: UPR counterscreen luciferase reporter, luminescence
Test: luciferase reporter activation, UPR counterscreen line – cell-based, luminescence, counter-screen for adaptive UPR activator project, dose response (AID 489027)
Calls of active or inactive are those of the source. No rule for the calls is given here.
Allowed answers: active, inactive

Worked set:
COc1ccc(/C=C/c2nc3cc(-c4ccccc4)ccc3o2)cc1O	active
COc1ccc2c(c1)[nH]c1c(=O)n(/N=C/C3C(C)C=C(C)CC3C)c(=O)[nH]c12 (stereo not given)	inactive
CCOC(=S)SCC(=O)Nc1nc(-c2ccc(Br)cc2)cs1	active
Oc1ccc(-c2nc3ccc4ccccc4c3c3c2CCC3)cc1O	active

Exam item: How was Oc1ccc(CN2CCC(Cc3ccccc3)CC2)c2cccnc12 classified in this test?
Marked response: active

====

Molecular target: UPR counterscreen luciferase reporter, luminescence
Assay: luciferase reporter activation, UPR counterscreen line – cell-based, luminescence, counter-screen for adaptive UPR activator project, dose response (AID 489027)
Activity calls are given as the source filed them. How the calls were made is not given here.
Allowed answers: 1 = active, -1 = inactive

Exam item: How was Cc1ccc(-c2ccnc(-c3ccc(O)cc3)n2)cc1 classified in this test?
Marked response: -1

Exam item: How was O=C(CSc1nc2ccccc2c(=O)n1-c1ccccc1)N1CCc2ccccc21 classified in this test?
Marked response: -1

Exam item: How was COc1cc(/C=C/c2ccc3cccc(O)c3n2)ccc1O classified in this test?
Marked response: 1

Exam item: How was CCNC(=O)c1c(NC(=O)c2cc(-c3cc(C)ccc3O)n[nH]2)sc2c1CCCC2 classified in this test?
Marked response: -1

Exam item: How was CC1=Nc2ccccc2/C1=C\c1sc(Nc2ccc(C)cc2)nc1O classified in this test?
Marked response: 1

Exam item: How was O=C(Nc1ccc([N+](=O)[O-])cc1)c1nc[nH]c1C(=O)NC1CCCCC1 classified in this test?
Marked response: -1

Exam item: How was O=C(Nc1ccc(Cl)cc1)Nc1ccccc1Sc1ncc([N+](=O)[O-])s1 classified in this test?
Marked response: -1

Exam item: How was O=C(COc1ccc(/C=N/NC(=O)c2cc3ccccc3o2)cc1Br)Nc1ccccc1 classified in this test?
Marked response: 1

Exam item: How was CCOC(=O)C1=C(C)N=C2c3ccccc3C(=O)C2C1c1ccc(C)cc1 (stereo not given) classified in this test?
Marked response: -1

Exam item: How was Cn1c(/C=C/c2ccc(Cl)cc2Cl)c([N+](=O)[O-])c(=O)n(C)c1=O classified in this test?
Marked response: 1
